Reference source for all entries: PubChem BioAssay AID1508612

Below, each entry is listed alongside its reported Papp.
assay: passive permeability, PAMPA, ADME assay (AID 1508612); conditions: pH 7.4, 30.0 min, 50.0 µM
readout-type: Papp (×10⁻⁶ cm/s)

INSERT INTO measurements (molecule, reading_qualifier, reported_measurement) VALUES
  ('c1ccc2c(NC3CCCCC3)nc(-c3ccncc3)nc2c1', '>', 1000),
  ('COc1ccc2nc(C)cc(Nc3ccc(Cl)c(Cl)c3)c2c1', '>', 1000),
  ('CCOC(=O)c1nn(-c2ccc(OC)cc2)c(=O)c2c(N)scc12', '=', 187),
  ('COc1ccccc1C(=O)Nc1nc2nc(C)cc(=O)n2[nH]1', '=', 7.8),
  ('O=C(Nc1ccccc1O)c1ccc(NC(=O)C2CC2)cc1', '=', 117),
  ('CCCCNC(=O)CN1CCN(c2ncc(NC(=O)c3ccc(Cl)cc3)cc2C(=O)O)CC1', '<', 1),
  ('CCCc1nnc(NC(=O)c2nc(S(=O)(=O)Cc3ccc(C)cc3)ncc2Cl)s1', '=', 89.4),
  ('COc1ccc(-c2nc3sc(CCNC(=O)C(C)(C)C)c(C)n3n2)cc1', '=', 214),
  ('COc1cc(C2c3cc(O)c(OC)cc3CC3C(=O)OCC32)ccc1O (stereo unspecified)', '=', 129),
  ('Cc1cccc(N(C)c2nc3ccccc3c3nnc(C)n23)c1', '>', 1000),
  ('Cn1cc2c3c(cccc31)CN(C(=O)c1ccc(F)c(Cl)c1)CC2', '>', 1000);
